STUDY SYSTEM: Serine/threonine-protein kinase B-raf (Homo sapiens, UniProt P15056, V600E)
Sequence (P15056 2-766 V600E limits assumed): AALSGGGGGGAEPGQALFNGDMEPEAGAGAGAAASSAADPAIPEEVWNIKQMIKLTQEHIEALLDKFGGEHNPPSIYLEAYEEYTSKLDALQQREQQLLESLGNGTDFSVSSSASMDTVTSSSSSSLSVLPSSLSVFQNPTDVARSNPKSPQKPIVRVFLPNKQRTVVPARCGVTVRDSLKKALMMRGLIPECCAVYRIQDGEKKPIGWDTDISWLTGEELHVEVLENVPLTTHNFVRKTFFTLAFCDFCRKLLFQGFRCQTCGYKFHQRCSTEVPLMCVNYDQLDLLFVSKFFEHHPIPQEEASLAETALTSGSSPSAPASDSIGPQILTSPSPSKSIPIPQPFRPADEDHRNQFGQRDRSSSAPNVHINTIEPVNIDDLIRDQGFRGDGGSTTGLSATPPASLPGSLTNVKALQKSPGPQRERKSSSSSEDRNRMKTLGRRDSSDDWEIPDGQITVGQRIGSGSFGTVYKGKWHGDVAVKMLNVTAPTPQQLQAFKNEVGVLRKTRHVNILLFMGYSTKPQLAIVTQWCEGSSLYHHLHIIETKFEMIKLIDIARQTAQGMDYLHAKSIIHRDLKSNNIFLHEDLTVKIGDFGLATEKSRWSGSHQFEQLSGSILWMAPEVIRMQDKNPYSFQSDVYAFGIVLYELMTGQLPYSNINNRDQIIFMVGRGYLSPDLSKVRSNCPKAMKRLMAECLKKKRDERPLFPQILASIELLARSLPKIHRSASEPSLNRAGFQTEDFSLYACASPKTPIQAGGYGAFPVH
PROTOCOL SUMMARY: Inhibition of B-Raf V600E mutant in human Malme-3M cells assessed as ERK phosphorylation
Type: cell-based
Each entry below carries its recorded IC50.
ASSAY METRIC: IC50 (µM)

>>> print(df.to_string())
                               query_smiles  assay_metric  censoring_sign  test_result
0  COc1n[nH]c2ncc(NC(=O)c3c(F)ccc(NC(=O)c4ccccc4)c3F)cc12          IC50               >           12
1  COc1n[nH]c2ncc(NC(=O)c3cc(NC(=O)c4cccc(C(C)(C)C#N)c4)ccc3Cl)cc12          IC50               =        0.022
2  COc1n[nH]c2ncc(NC(=O)c3cc(NC(=O)c4cccc(C(C)(C)C#N)c4)ccc3F)cc12          IC50               =         0.02
3  COc1n[nH]c2ncc(NC(=O)c3cc(NC(=O)c4cccc(C(C)(C)C#N)c4)ccc3C)cc12          IC50               =        0.018
4  COc1n[nH]c2ncc(NC(=O)c3cccc(NC(=O)c4cccc(C(C)(C)C#N)c4)c3)cc12          IC50               =         0.14
5  COc1n[nH]c2ncc(NC(=O)c3cc(NC(=O)c4ccc(Cl)c(C(F)(F)F)c4)ccc3F)cc12          IC50               =        0.096
6  CC(C)(C#N)c1cccc(C(=O)Nc2ccc(F)c(C(=O)Nc3cnc4[nH]nc(C5CC5)c4c3)c2F)c1          IC50               =         0.52
7  CC(C)(C#N)c1cccc(C(=O)Nc2ccc(F)c(C(=O)Nc3cnc4[nH]ncc4c3)c2F)c1          IC50               =         0.43

====

STUDY SYSTEM: Serine/threonine-protein kinase B-raf (Homo sapiens, UniProt P15056, V600E)
PROTOCOL SUMMARY: Inhibition of full length B-Raf V600E mutant
pIC50: −log10 of the molar value.
ASSAY METRIC: pIC50

>>> print(df.to_string())
                               query_smiles  test_result
0  COc1n[nH]c2ncc(NC(=O)c3cccc(NC(=O)c4cccc(C(C)(C)C#N)c4)c3)cc12         9.05
1  COc1n[nH]c2ncc(NC(=O)c3cc(C(=O)Nc4cccc(C(F)(F)F)c4)ccc3C)cc12         8.18
2  COc1n[nH]c2ncc(NC(=O)c3cc(NC(=O)c4ccc(Cl)c(C(F)(F)F)c4)ccc3F)cc12         8.89
3  O=C(Nc1ccccc1)Nc1cccc(C(=O)Nc2cnc3[nH]ncc3c2)c1         9.15
4  COc1n[nH]c2ncc(NC(=O)c3cc(NC(=O)c4cccc(C(C)(C)C#N)c4)ccc3C)cc12         8.72
5  COc1n[nH]c2ncc(NC(=O)c3cc(NC(=O)c4cccc(C(C)(C)C#N)c4)ccc3F)cc12         9.00
6  COc1n[nH]c2ncc(NC(=O)c3cccc(NC(=O)c4cccc(C(C)(C)C#N)c4)c3F)cc12         8.29
7  CC(C)(C#N)c1cccc(C(=O)Nc2ccc(F)c(C(=O)Nc3cnc4[nH]nc(C5CC5)c4c3)c2F)c1         8.52
8  COc1n[nH]c2ncc(NC(=O)c3cccc(C(=O)Nc4ccccc4)c3)cc12         7.10
